TEST_DESCRIPTION: inhibitors of TNFa-induced NFkB p65 translocation, primary screen, imaging, HUVEC, MLSMR starter and 10KST1 sets (AID 438);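 also: compound added about 3h40 before a 20 min TNFalpha stimulation; signal is the nuclear over cytoplasmic p65 intensity ratio per well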
RUN_PARAMETERS: HUVEC TNFa-induced p65 nuclear translocation; at 2 µM, hits give high values, 0% TNFa-plus-vehicle, 100% no-TNFa wells
VALUE_KIND: inhibition (%)

>>> value_measured("COc1ccccc1-c1nnc2sc(COc3ccccc3)nn12")
-8.1
>>> value_measured("O=C(O)CCc1cc(I)c(Oc2ccc(O)c(I)c2)c(I)c1")
-9.5
>>> value_measured("c1ccc2c(c1)[nH]c1c(N3CCC4(CC3)OCCO4)ncnc12")
-0.4
>>> value_measured("COc1cccc(CNc2ccc(Br)cn2)c1O")
-3.4
>>> value_measured("O=C1[C@@H]2[C@H](C(=O)N1O)[C@H]1C=C[C@@H]2C1")
-1
>>> value_measured("CN1CCN(c2nc(C(N)=O)cc(-c3ccccc3)n2)CC1")
-6.4
>>> value_measured("CC(C)(C)c1cccc(/C=N/O)c1O")
-19.1
>>> value_measured("Cn1cc(NC(=O)c2cc(NC(=O)c3cc(NC=O)cn3C)cn2C)cc1C(=O)NCCC(=N)N")
-3.6
>>> value_measured("Cc1ccc(CC2CC(=O)N(c3ccc4c(c3)OCCO4)C2=O)cc1 (stereo unspecified)")
-11
>>> value_measured("O=C(Nc1ccc2c(c1)OCCO2)c1ccc(Br)o1")
3.2
>>> value_measured("O=C(O)CCN(CCC(=O)O)c1nnc(SCc2ccccc2)s1")
4
